- systemUnderTest: UniProt:Q93086
- Sequence (Q93086 whole entry): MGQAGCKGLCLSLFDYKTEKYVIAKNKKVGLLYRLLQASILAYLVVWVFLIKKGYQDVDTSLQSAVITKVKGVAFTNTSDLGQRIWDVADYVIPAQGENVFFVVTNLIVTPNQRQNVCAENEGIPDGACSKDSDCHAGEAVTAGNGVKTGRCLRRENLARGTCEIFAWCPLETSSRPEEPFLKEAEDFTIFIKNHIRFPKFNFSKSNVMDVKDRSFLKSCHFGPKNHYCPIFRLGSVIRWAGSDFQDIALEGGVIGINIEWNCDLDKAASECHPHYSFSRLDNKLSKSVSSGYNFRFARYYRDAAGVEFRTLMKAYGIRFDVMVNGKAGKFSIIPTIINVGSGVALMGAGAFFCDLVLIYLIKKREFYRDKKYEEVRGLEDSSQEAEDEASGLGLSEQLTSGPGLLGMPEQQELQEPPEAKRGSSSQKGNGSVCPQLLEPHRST
- methodNotes: Antagonist activity at human P2X5 receptor expressed in human 1321N1 cells assessed as reduction in intracellular Ca2+ influx incubated for 30 mins by Fura-2 AM based fluorescence assay
- Format: cell-based
Entries and their measured pIC50 follow.
Entry type: numeric. Quantity: pIC50, the -log10 of concentration in molar units.

Example entries and their recorded answers appear below.
{"columns": ["sampleSmiles", "measValue"],
 "data": [
  ["O=C(NC(=S)Nc1cc(Cl)c(O)c(Cl)c1)C12CC3CC(CC(C3)C1)C2", 4.91],
  ["Cc1ccc(NC(=S)NC(=O)C23CC4CC(CC(C4)C2)C3)c(Br)c1", 5.04]
]}

Continue with the next compound.
# get_value(readout='pIC50', item= COc1ccc(NC(=S)NC(=O)C23CC4CC(CC(C4)C2)C3)cc1OC )
4.78

###

- systemUnderTest: UniProt Q99572
- methodNotes: Negative allosteric modulation activity at human P2X7 receptor expressed in human 1321N1 cells assessed as reduction in ethidium bromide dye uptake preincubated for 15 mins followed by BzATP addition and measured after 30 mins by Ethidium bromide dye based fluorescence plate reader analysis
- Type: cell-based
experimentalEndpoint: IC50 (nM)
Respond numerically; units are nM and should not be typed.

# get_value(readout='IC50', item= O=C(NC(=S)Nc1cccc2cccnc12)C12CC3CC(CC(C3)C1)C2 )
68

###

- systemUnderTest: P2X purinoceptor 7 (Homo sapiens, UniProt Q99572)
- Sequence (Q99572 whole entry): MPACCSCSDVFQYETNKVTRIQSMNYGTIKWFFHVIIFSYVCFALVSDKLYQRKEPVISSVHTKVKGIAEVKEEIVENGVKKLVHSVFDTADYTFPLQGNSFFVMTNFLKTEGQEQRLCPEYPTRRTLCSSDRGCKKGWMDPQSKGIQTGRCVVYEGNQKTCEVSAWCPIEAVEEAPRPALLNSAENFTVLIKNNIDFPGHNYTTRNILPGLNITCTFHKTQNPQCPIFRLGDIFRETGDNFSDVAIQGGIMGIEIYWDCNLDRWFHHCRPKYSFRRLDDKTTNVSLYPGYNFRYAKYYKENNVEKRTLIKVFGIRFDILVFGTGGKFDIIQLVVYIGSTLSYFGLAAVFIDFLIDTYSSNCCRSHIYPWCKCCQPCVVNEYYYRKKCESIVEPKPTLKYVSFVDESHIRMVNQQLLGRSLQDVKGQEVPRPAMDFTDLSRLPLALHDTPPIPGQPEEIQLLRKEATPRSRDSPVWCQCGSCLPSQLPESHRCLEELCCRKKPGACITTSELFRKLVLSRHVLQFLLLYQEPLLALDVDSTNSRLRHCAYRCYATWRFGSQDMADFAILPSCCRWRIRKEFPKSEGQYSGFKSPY
- methodNotes: Antagonist activity at human P2X7 receptor expressed in human 1321N1 cells assessed as reduction in intracellular Ca2+ influx incubated for 30 mins by Fura-2 AM based fluorescence assay
- Format: cell-based
Entries and their measured pIC50 follow.
Entry type: numeric. Quantity: pIC50, the -log10 of concentration in molar units.

{"columns": ["sampleSmiles", "measValue"],
 "data": [
  ["NS(=O)(=O)c1ccccc1NC(=S)NC(=O)C12CC3CC(CC(C3)C1)C2", 6.16]
]}

# get_value(readout='pIC50', item= O=C(NC(=S)Nc1cc(Br)cc(C(F)(F)F)c1)C12CC3CC(CC(C3)C1)C2 )
5.40

###

- methodNotes: Cytotoxicity against human HEK293 cells assessed as reduction in cell viability at 50 uM incubated for 24 hrs by MTT assay relative to control
- Format: toxicity, cell-based
- conditionInfo: read-out: INH
experimentalEndpoint: cytotoxicity at 24 h, 50 µM (%)
Respond numerically; units are % and should not be typed.

# get_value(readout='cytotoxicity at 24 h, 50 µM', item= O=C(NC(=S)Nc1cc(Br)cc(C(F)(F)F)c1)C12CC3CC(CC(C3)C1)C2 )
6.85

# get_value(readout='cytotoxicity at 24 h, 50 µM', item= Cc1ccc(NC(=S)NC(=O)C23CC4CC(CC(C4)C2)C3)c(Br)c1 )
9.46

# get_value(readout='cytotoxicity at 24 h, 50 µM', item= O=C(NC(=S)Nc1cc(Br)ccc1Br)C12CC3CC(CC(C3)C1)C2 )
10.7

# get_value(readout='cytotoxicity at 24 h, 50 µM', item= NS(=O)(=O)c1ccccc1NC(=S)NC(=O)C12CC3CC(CC(C3)C1)C2 )
3.77

# get_value(readout='cytotoxicity at 24 h, 50 µM', item= Cc1ccc(C(=O)Nc2ccc(S(=O)(=O)O)c3cc(S(=O)(=O)O)cc(S(=O)(=O)O)c23)cc1NC(=O)c1cccc(NC(=O)Nc2cccc(C(=O)Nc3cc(C(=O)Nc4ccc(S(=O)(=O)O)c5cc(S(=O)(=O)O)cc(S(=O)(=O)O)c45)ccc3C)c2)c1 )
48
